Values from patent EP1720907B1

Assay target: T1, human CD38 (human, UniProt P28907 1-300)
T1 sequence: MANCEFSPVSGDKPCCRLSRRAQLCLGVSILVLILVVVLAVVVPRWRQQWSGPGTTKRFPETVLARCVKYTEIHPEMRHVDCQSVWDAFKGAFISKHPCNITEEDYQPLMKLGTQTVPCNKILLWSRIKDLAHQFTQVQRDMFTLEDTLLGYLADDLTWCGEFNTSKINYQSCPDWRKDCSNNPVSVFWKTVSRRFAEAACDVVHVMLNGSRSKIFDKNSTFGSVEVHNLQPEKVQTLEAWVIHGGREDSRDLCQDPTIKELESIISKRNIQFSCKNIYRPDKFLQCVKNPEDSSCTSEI
Protocol summary: cell-based or functional assay
Parameter: ADCC EC50 [nM], RPMI8226 (nM)
Unit nM implied. Number only.

Below, 3 binders whose answers are already recorded.
>  <Binder>
MOR03077 human IgG1 (antibody, V domains shown) VH: QVQLVQSGAEVKKPGASVKVSCKASGYTFTSYSINWVRQAPGQGLEWMGYIDPNRGNTNYAQKFQGRVTMTRDTSISTAYMELSSLRSEDTAVYYCAREYIYFIHGMLDFWGQGTLVTVSS VL: DIVMTQSPLSLPVTPGEPASISCRSSQSLLFIDGNNYLNWYLQKPGQSPQLLIYLGSNRASGVPDRFSGSGSGTDFTLKISRVEAEDVGVYYCQQYSSKSATFGQGTKVEIKR

>  <ADCC EC50 [nM], RPMI8226 [nM]>
0.08

$$$$
>  <Binder>
MOR03100 human IgG1 (antibody, V domains shown) VH: QVQLVESGGGLVQPGGSLRLSCAASGFTFSSNGMSWVRQAPGKGLEWVSNISYLSSSTYYADSVKGRFTISRDNSKNTLYLQMNSLRAEDTAVYYCARFYGYFNYADVWGQGTLVTVSS VL: DIELTQPPSVSVAPGQTARISCSGDNIGHYYASWYQQKPGQAPVLVIYRDNDRPSGIPERFSGSNSGNTATLTISGTQAEDEADYYCQSYDYLHDFVFGGGTKLTVLG

>  <ADCC EC50 [nM], RPMI8226 [nM]>
0.28

$$$$
>  <Binder>
MOR03080 human IgG1 (antibody, V domains shown) VH: QVQLVESGGGLVQPGGSLRLSCAASGFTFSSYGMHWVRQAPGKGLEWVSNIYSDGSNTFYADSVKGRFTISRDNSKNTLYLQMNSLRAEDTAVYYCARNMYRWPFHYFFDYWGQGTLVTVSS VL: DIELTQPPSVSVAPGQTARISCSGDNIGNKYVSWYQQKPGQAPVVVIYGDNNRPSGIPERFSGSNSGNTATLTISGTQAEDEADYYCSSYDSSYFVFGGGTKLTVLG

>  <ADCC EC50 [nM], RPMI8226 [nM]>
0.05

$$$$

# input for lookup
Which ADCC EC50 [nM], RPMI8226 value belongs to MOR03079 human IgG1 (antibody, V domains shown) VH: QVQLVESGGGLVQPGGSLRLSCAASGFTFSNYGMHWVRQAPGKGLEWVSNIRSDGSWTYYADSVKGRFTISRDNSKNTLYLQMNSLRAEDTAVYYCARRYWSKSHASVTDYWGQGTLVTVSS VL: DIQMTQSPSSLSASVGDRVTITCRASQDISAFLNWYQQKPGKAPKLLIYKVSNLQSGVPSRFSGSGSGTDFTLTISSLQPEDFATYYCQQAYSGSITFGQGTKVEIKR ?
0.04
